Ref: ChEMBL document CHEMBL3132820

Tested on: HeLa
assay_notes: Cytotoxicity against human HeLa cells after 48 hrs by MTT assay
Type: functional, cell-based
readout: IC50 (µM)

{"columns": ["molecule", "relation_operator", "test_result"],
 "data": [
  ["Cc1nc2c3ccccc3ccc2c2nc3c(ccc4ccccc43)c(-c3cccc4ccccc34)c12", "=", 14.9],
  ["Cc1nc2c3ccccc3ccc2c2nc3c(ccc4ccccc43)c(-c3ccccc3)c12", ">", 80],
  ["Cc1nc2c3ccccc3ccc2c2nc3c(ccc4ccccc43)c(-c3ccccc3N)c12", "=", 16.2],
  ["Cc1nc2c3ccccc3ccc2c2nc3c(ccc4ccccc43)c(-c3ccc(O)cc3)c12", "=", 4.63],
  ["COc1ccc(-c2c3ccc4ccccc4c3nc3c2c(C)nc2c4ccccc4ccc32)cc1", "=", 45.9],
  ["Cc1nc2c3ccccc3ccc2c2nc3c(ccc4ccccc43)c(C)c12", ">", 80],
  ["Cc1nc2c3ccccc3ccc2c2nc3c(ccc4ccccc43)c(-c3cc(O)nc4ccccc34)c12", "=", 4.88],
  ["Cc1ccc(-c2c3ccc4ccccc4c3nc3c2c(C)nc2c4ccccc4ccc32)cc1", "=", 72.2],
  ["Cc1nc2c3ccccc3ccc2c2nc3c(ccc4ccccc43)c(-c3ccccc3S)c12", "=", 3.19],
  ["COc1cccc2c1C(=O)c1c(O)c3c(c(O)c1C2=O)C[C@@](O)(C(=O)CO)C[C@@H]3O[C@H]1C[C@H](N)[C@H](O)[C@H](C)O1 [DOXORUBICIN]", "=", 6.3],
  ["Cc1cc(Nc2cccc3ccccc23)c2ccc3ccccc3c2n1", "=", 3.45],
  ["Cc1nc2c3ccccc3ccc2c2nc3c(ccc4ccccc43)c(-c3cccnc3)c12", "=", 3.86],
  ["Cc1nc2c3ccccc3ccc2c2nc3c(ccc4ccccc43)c(-c3cc([N+](=O)[O-])ccc3N)c12", "=", 5.77],
  ["Cc1nc2c3ccccc3ccc2c2nc3c(ccc4ccccc43)c(-c3nccnc3N)c12", "=", 1.21],
  ["Cc1nc2c3ccccc3ccc2c2nc3c(ccc4ccccc43)c(-c3cccc([N+](=O)[O-])c3)c12", "=", 50.7],
  ["Cc1nc2c3ccccc3ccc2c2nc3c(ccc4ccccc43)c(-c3ccccc3Cl)c12", ">", 80]
]}
